Molecular target: human TRPV3 (Homo sapiens, UniProt Q8NET8)
Sequence (Q8NET8 1-790): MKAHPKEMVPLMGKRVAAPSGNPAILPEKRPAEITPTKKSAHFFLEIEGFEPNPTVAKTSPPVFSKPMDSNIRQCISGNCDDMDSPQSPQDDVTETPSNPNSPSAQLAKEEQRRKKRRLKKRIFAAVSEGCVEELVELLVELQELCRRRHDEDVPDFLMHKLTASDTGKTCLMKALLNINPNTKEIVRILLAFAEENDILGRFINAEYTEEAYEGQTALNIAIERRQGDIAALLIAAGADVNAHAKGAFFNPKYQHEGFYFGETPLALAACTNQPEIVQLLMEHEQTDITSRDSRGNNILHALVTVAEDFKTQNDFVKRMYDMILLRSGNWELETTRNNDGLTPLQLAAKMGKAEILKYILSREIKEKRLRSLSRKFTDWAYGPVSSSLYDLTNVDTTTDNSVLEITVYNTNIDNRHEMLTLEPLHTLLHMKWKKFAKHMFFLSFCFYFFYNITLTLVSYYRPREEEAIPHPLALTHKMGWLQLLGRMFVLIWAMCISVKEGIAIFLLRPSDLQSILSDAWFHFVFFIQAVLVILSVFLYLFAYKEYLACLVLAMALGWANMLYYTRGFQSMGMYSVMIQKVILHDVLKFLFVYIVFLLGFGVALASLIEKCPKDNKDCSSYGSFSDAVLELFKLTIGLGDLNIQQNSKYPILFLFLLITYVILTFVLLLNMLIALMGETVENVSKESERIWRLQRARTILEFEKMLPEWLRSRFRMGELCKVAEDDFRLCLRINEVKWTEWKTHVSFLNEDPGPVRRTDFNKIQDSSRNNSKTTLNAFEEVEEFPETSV
Experiment: Calcium flux in TRPV3 overexpressing HEK-293 cells
endpoint.label: pEC50
One number for each entry, as −log10 of the molar value.

Give the measured pEC50 of Cc1ccc(C(C)C)cc1O .
3.36

Values from paper PMC4115637
